B1: tRNA (parent)
chain: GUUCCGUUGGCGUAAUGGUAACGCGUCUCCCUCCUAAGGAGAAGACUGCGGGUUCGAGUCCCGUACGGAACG

Variants of: B1
Test: yeast fitness relative to wild type (ratio to wild type); higher = fitter; tRNA-Arg(CCU), competitive growth, 37 C, YPD
Fewer inactive variants are shown than the library holds.
I would appreciate it if you labelled entries true when yeast fitness is 0.6 or higher, otherwise false.

Some entries whose results are on file:
C4U A15U U28C : false
G23C A37G C55G G67A : false
C5A G23C C61G C62U C66U : false
A20C C30G U53G C61G : true
A14G G38C : true

Form field: yeast fitness at least 0.6? Entry: G63U
true
